Known IC50 of a selection of compounds
- TESTED TARGET: α-glucosidase (EC 3.2.1.20)
- EXPERIMENTAL CONDITIONS: read-out: IC50 ± µM, in vitro α-glucosidase-inhibitory activity; Table 2; substrate p-nitrophenyl-α-D-glucopyranoside 0.7 mM, pH 6.8, 37 °C
REPORTED PROPERTY: IC50 (µM)

[
  {
    "COMPOUND": "CC(=O)O[C@@H]1CC[C@@]2(C)[C@@H](CC[C@]3(C)[C@@H]2C(=O)C=C2[C@@H]4[C@@H](C)[C@H](C)CC[C@]4(C)CC[C@]23C)[C@@]1(C)C(=O)OCn1cc(-c2cccc(Br)c2)nn1",
    "UNIT STRING": "µM",
    "TEST VALUE": 0.78
  },
  {
    "COMPOUND": "C[C@H]1[C@H](C)CC[C@]2(C)CC[C@]3(C)C(=CC(=O)[C@@H]4[C@@]5(C)CC[C@@H](O)[C@](C)(C(=O)OCn6cc(-c7cccc(Br)c7)nn6)[C@@H]5CC[C@]43C)[C@H]12",
    "UNIT STRING": "µM",
    "TEST VALUE": 1.34
  },
  {
    "COMPOUND": "CC(=O)OC1CCC2(C)C(CCC3(C)C2C(=O)C=C2C4C(C)C(C)CCC4(C)CCC23C)C1(C)C(=O)OCn1cc(-c2cccc(C(F)(F)F)c2)nn1 (centres unmarked)",
    "UNIT STRING": "µM",
    "TEST VALUE": 0.22
  },
  {
    "COMPOUND": "CC(=O)O[C@@H]1CC[C@@]2(C)[C@@H](CC[C@]3(C)[C@@H]2C(=O)C=C2[C@@H]4[C@@H](C)[C@H](C)CC[C@]4(C)CC[C@]23C)[C@@]1(C)C(=O)OCn1cc(-c2ccccc2C(F)(F)F)nn1 [6d]",
    "UNIT STRING": "µM",
    "TEST VALUE": 2.37
  },
  {
    "COMPOUND": "CC(=O)O[C@@H]1CC[C@@]2(C)[C@@H](CC[C@]3(C)[C@@H]2C(=O)C=C2[C@@H]4[C@@H](C)[C@H](C)CC[C@]4(C)CC[C@]23C)[C@@]1(C)C(=O)OCn1cc(-c2ccc(Cl)cc2)nn1 [6i]",
    "UNIT STRING": "µM",
    "TEST VALUE": 3.06
  },
  {
    "COMPOUND": "C[C@H]1[C@H](C)CC[C@]2(C)CC[C@]3(C)C(=CC(=O)[C@@H]4[C@@]5(C)CC[C@@H](O)[C@](C)(C(=O)OCn6cc(-c7ccc(Br)cc7)nn6)[C@@H]5CC[C@]43C)[C@H]12",
    "UNIT STRING": "µM",
    "TEST VALUE": 0.43
  },
  {
    "COMPOUND": "CC(=O)OC1CCC2(C)C(CCC3(C)C2C(=O)C=C2C4C(C)C(C)CCC4(C)CCC23C)C1(C)C(=O)OCn1cc(-c2ccccc2)nn1 (centres unmarked)",
    "UNIT STRING": "µM",
    "TEST VALUE": 2.02
  },
  {
    "COMPOUND": "CC(=O)O[C@@H]1CC[C@@]2(C)[C@@H](CC[C@]3(C)[C@@H]2C(=O)C=C2[C@@H]4[C@@H](C)[C@H](C)CC[C@]4(C)CC[C@]23C)[C@@]1(C)C(=O)OCn1cc(-c2ccc(F)cc2)nn1 [6j]",
    "UNIT STRING": "µM",
    "TEST VALUE": 0.58
  },
  {
    "COMPOUND": "COc1ccccc1-c1cn(COC(=O)C2(C)C(OC(C)=O)CCC3(C)C2CCC2(C)C3C(=O)C=C3C4C(C)C(C)CCC4(C)CCC32C)nn1 (centres unmarked)",
    "UNIT STRING": "µM",
    "TEST VALUE": 1.23
  },
  {
    "COMPOUND": "CC1CCC2(C)CCC3(C)C(=CC(=O)C4C5(C)CCC(O)C(C)(C(=O)OCn6cc(-c7ccccc7)nn6)C5CCC43C)C2C1C (centres unmarked)",
    "UNIT STRING": "µM",
    "TEST VALUE": 2.31
  },
  {
    "COMPOUND": "CC(=O)OC1CCC2(C)C(CCC3(C)C2C(=O)C=C2C4C(C)C(C)CCC4(C)CCC23C)C1(C)C(=O)OCn1cc(-c2ccc(Br)cc2)nn1 (centres unmarked)",
    "UNIT STRING": "µM",
    "TEST VALUE": 0.69
  }
]
